FYI, the data here is from patent US9920088B2.

tested on: influenza virus A/WSN/33(H1N1); test: Cytopathic effect (CPE) inhibition assay, WSN virus in MDCK cells; format: cell-based; settings: Table 6; 50 μM, WSN MOI=1, 48 h; lower = better inhibition

# molecule, Viral Infectivity (%)
records = [
    ("CC(=O)OCC1O[C@H](OC(=O)[C@]23CCC(C)(C)C[C@H]2C2=CC[C@@H]4[C@@]5(C)CC[C@H](O)C(C)(C)[C@@H]5CC[C@@]4(C)[C@]2(C)CC3O)C(OC(C)=O)C(OC(C)=O)[C@@H]1OC(C)=O (some centres unmarked)", "109.7%"),
    ("CC1(C)CC[C@]2(C(=O)O[C@H]3OC(CO)[C@H](O[C@H]4OC(CO)[C@@H](O)C(O)C4O)C(O)C3O)C(O)C[C@]3(C)C(=CC[C@@H]4[C@@]5(C)CC[C@H](O)C(C)(C)[C@@H]5CC[C@]43C)[C@@H]2C1 (some centres unmarked)", "82.6%"),
    ("CC(=O)OCC1O[C@H](OC(=O)[C@]23CCC(C)(C)C[C@H]2C2=CC[C@@H]4[C@@]5(C)CC[C@H](O)C(C)(C)C5CC[C@@]4(C)[C@]2(C)CC3O)C(OC(C)=O)C(OC(C)=O)[C@H]1OC(C)=O (some centres unmarked)", "78.7%"),
    ("CC(=O)OCC1O[C@@H](O[C@H]2C(COC(C)=O)O[C@H](OC(=O)[C@]34CCC(C)(C)C[C@H]3C3=CC[C@@H]5[C@@]6(C)CC[C@H](O)C(C)(C)[C@@H]6CC[C@@]5(C)[C@]3(C)CC4O)C(OC(C)=O)C2OC(C)=O)C(OC(C)=O)C(OC(C)=O)[C@H]1OC(C)=O (some centres unmarked)", "80.1%"),
    ("CC1(C)CC[C@]2(C(=O)O[C@H]3OC(CO)[C@H](O[C@@H]4OC(CO)[C@H](O)C(O)C4O)C(O)C3O)C(O)C[C@]3(C)C(=CC[C@@H]4[C@@]5(C)CC[C@H](O)C(C)(C)[C@@H]5CC[C@]43C)[C@@H]2C1 (some centres unmarked)", "115.5%"),
]
